# subject-of-test: UniProt:Q8N6T7
# protocol: SIRT6 enzymatic activity assay with fluorophore (AMC)-labeled Lysin-myristoylated histone H3 peptide (de-myristoylation, trypsin release)
# Format: biochemical
# Parameters: six-histidine tag; made in house; host or cells: Escherichia coli BL21
# protocol-conditions: amount tested 20 uM; Example 5, Table 9
# % Activity listing for each entry below
Give the quantity in %, number only.

O=C(Oc1ccc2c3c(c(=O)oc2c1)CCC3)c1cccs1; 455
CN(C)CCCN(C(=O)CCOc1ccccc1)c1nc2ccc(Br)cc2s1; 28
CC(=O)Oc1ccc2c(C)c(Cc3ccccc3)c(=O)oc2c1C; 137

Request: Value lookup for % Activity; key = `Cc1nc2cc(-c3ccccc3)nn2c(C(C)(C)C)c1C`
Result: 21

Request: Value lookup for % Activity; key = `COc1cccc2sc(N(CCCN(C)C)C(=O)CCSc3ccccc3)nc12`
Result: 111

Request: Value lookup for % Activity; key = `COC(=O)Cc1c(C)c2ccc(OC(=O)c3cccc(OC)c3)c(C)c2oc1=O`
Result: 396

Request: Value lookup for % Activity; key = `CN(C)C(=O)C1CCN(c2nc3ccc(-c4cncnc4)nc3s2)CC1`
Result: 80

Request: Value lookup for % Activity; key = `Cc1ccc2sc(N(CCCN(C)C)C(=O)CCS(=O)(=O)c3ccccc3)nc2c1C`
Result: 70

----------
# subject-of-test: SIRT6 (Homo sapiens, UniProt Q8N6T7)
# Sequence (Q8N6T7 whole entry): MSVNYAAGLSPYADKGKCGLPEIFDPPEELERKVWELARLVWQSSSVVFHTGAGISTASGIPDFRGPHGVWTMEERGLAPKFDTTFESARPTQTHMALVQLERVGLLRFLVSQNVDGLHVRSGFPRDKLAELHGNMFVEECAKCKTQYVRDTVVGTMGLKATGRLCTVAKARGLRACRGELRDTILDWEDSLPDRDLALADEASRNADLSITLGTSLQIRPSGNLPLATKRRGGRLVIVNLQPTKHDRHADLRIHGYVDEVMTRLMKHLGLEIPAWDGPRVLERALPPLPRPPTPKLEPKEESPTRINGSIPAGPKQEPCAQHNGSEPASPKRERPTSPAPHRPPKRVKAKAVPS
# protocol: SIRT6 enzymatic activity assay with fluorophore (AMC)-labeled Lysin-myristoylated histone H3 peptide (de-myristoylation, trypsin release)
# Assay type: biochemical
# Design: six-histidine tag; made in house; host or cells: Escherichia coli BL21
# protocol-conditions: amount tested 20 uM; Example 5, Table 9
Please use yes whenever % Activity is not below 30%, and no whenever it is.

CCOC(=O)CCc1c(C)c2ccc(OC(=O)c3cccc(OC)c3)c(C)c2oc1=O; yes

Request: Please tell me: is the molecule `COc1ccc(C(=O)Oc2ccc3c4c(c(=O)oc3c2)CCC4)cc1` at or over 30% in terms of % Activity?
Result: yes

Request: Please tell me: is the molecule `CCOc1ccccc1C(=O)Oc1ccc2c(C)c(CC(=O)OC)c(=O)oc2c1C` at or over 30% in terms of % Activity?
Result: yes

Request: Please tell me: is the molecule `CC(=O)Oc1ccc(C(=O)Nc2nc3c(C)cc(C)cc3s2)cc1` at or over 30% in terms of % Activity?
Result: no

Request: Please tell me: is the molecule `COC(=O)c1ccccc1NC(=O)Cn1c(S(=O)(=O)Cc2ccccc2)nc2ccccc21` at or over 30% in terms of % Activity?
Result: no

Request: Please tell me: is the molecule `COc1cccc(C(=O)Oc2ccc3c4c(c(=O)oc3c2C)CCCC4)c1` at or over 30% in terms of % Activity?
Result: yes

Request: Please tell me: is the molecule `COc1ccc(C(=O)Oc2ccc3c(C)c(Cc4ccccc4)c(=O)oc3c2C)cc1` at or over 30% in terms of % Activity?
Result: no

Request: Please tell me: is the molecule `Cc1c(Cc2ccccc2)c(=O)oc2cc(OC(=O)c3ccccc3)ccc12` at or over 30% in terms of % Activity?
Result: yes

----------
# % activity Max. conc. 100 uM listing for each entry below
# subject-of-test: SIRT6 (Homo sapiens)
# protocol: SIRT6 enzymatic activity assay with fluorophore (AMC)-labeled Lysin-myristoylated histone H3 peptide (de-myristoylation, trypsin release)
# Format: biochemical
# Set-up: six-histidine tag; made in house; host or cells: Escherichia coli BL21
# protocol-conditions: compound 100 uM; percentage of signal increase relative to control wells; Tables 1-2
Give the quantity in %, number only.

# count of solved cases: 5
CCCC1(CO)CCCN1C(=O)c1ccc2cc[nH]c2c1 (stereo not drawn); 53
Cc1nc(Cc2ccc(F)cc2)sc1C(=O)Nc1ccc(F)cc1F; 22
CN(C)C(=O)c1ccc(-c2ccc(N3CCCCC3)nc2)cc1; 54
CCCNC(=O)c1ccc(-c2ccc(N3CCCCC3)nc2)cc1; 50
C=C1Cc2cc(C)cc(CC(=O)[C@@H](NS(=C)(=C)c3ccc(C)cc3)[C@H](C)CC)c2C2=C1CCC2; 113

Request: Value lookup for % activity Max. conc. 100 uM; key = `Cc1cccc2sc(N(CCCN(C)C)C(=O)CCOc3ccccc3)nc12`
Result: 255

Request: Value lookup for % activity Max. conc. 100 uM; key = `CCCNc1nc2ccccc2nc1S(=O)(=O)Cc1ccc(Cl)cc1`
Result: 42

Request: Value lookup for % activity Max. conc. 100 uM; key = `CCOc1ccc(NC(=O)c2sc3nc(C)nc(N(C)c4ccc(C(C)C)cc4)c3c2C)cc1`
Result: 54

Request: Value lookup for % activity Max. conc. 100 uM; key = C=C(CN1c2ccccc2C(C)(C)C12C=Cc1c(ccc3ccccc13)C2)NC (stereo not drawn)
Result: 27

----------
# subject-of-test: SIRT6 (Homo sapiens, UniProt Q8N6T7)
# protocol: SIRT6 enzymatic activity assay with fluorophore (AMC)-labeled Lysin-myristoylated histone H3 peptide (de-myristoylation, trypsin release)
# Type: biochemical
# Design: six-histidine tag; made in house; host or cells: Escherichia coli BL21
# protocol-conditions: amount tested 20 uM; Example 5, Table 9
quantity-kind: % Activity (%)
Give the quantity in %, number only.

# count of solved cases: 5
CCCc1ccc(-c2ccc(C(=O)Nc3nc4ccc(C)cc4s3)cc2)nc1; 40
CN(C)CCCN(C(=O)CCS(=O)(=O)c1ccccc1)c1nc2c(F)cccc2s1; 95
CCCCCCc1c(C)c2cc3c(-c4ccc(F)cc4)coc3c(C)c2oc1=O; 21
Cc1c(OC(=O)C2CCCCC2)ccc2c3c(c(=O)oc12)CCCC3; 71
O=C(C1=CC=CC1)n1nc(-c2ccccc2)nc1NCc1ccco1; 77

Request: Value lookup for % Activity; key = `Cc1c(C)c2ccc(OC(=O)C3CCCCC3)c(C)c2oc1=O`
Result: 237

Request: Value lookup for % Activity; key = `CCN(CC)CCN(C(=O)CCOc1ccccc1)c1nc2c(F)cc(F)cc2s1`
Result: 38

Request: Value lookup for % Activity; key = `COc1ccc(C(=O)Oc2ccc3c(C)c(Cc4ccccc4)c(=O)oc3c2)cc1`
Result: 140

----------
# subject-of-test: SIRT6 (Homo sapiens)
# protocol: SIRT6 enzymatic activity assay with fluorophore (AMC)-labeled Lysin-myristoylated histone H3 peptide (de-myristoylation, trypsin release)
# Type: biochemical
# Parameters: six-histidine tag; made in house; host or cells: Escherichia coli BL21
# protocol-conditions: compound 20 uM; percentage of signal increase relative to control wells; Tables 1-2
quantity-kind: % activity 20 uM (%)
Give the quantity in %, number only.

# count of solved cases: 4
Cc1ccnc(NC(c2ccc(Cl)cc2Cl)c2ccc3cccnc3c2O)c1 (stereo not shown) [4896-3248]; 30
Cc1nc(Cc2ccc(F)cc2)sc1C(=O)Nc1ccc(F)cc1F [M830-6517]; 36
CC(=O)Nc1ccc(-c2cc(C(=O)NCCN3CCN(C)CC3)c3cc(C)ccc3n2)cc1 [L036-2289]; 96
CCCNc1nc2ccccc2nc1S(=O)(=O)Cc1ccc(Cl)cc1 [L103-0652]; 34

Request: Value lookup for % activity 20 uM; key = CN(C)CCCN(C(=O)CCOc1ccccc1)c1nc2c(F)cccc2s1 [E677-1326]
Result: 287

Request: Value lookup for % activity 20 uM; key = CN(C)C(=O)c1ccc(-c2ccc(N3CCCCC3)nc2)cc1 [M715-0112]
Result: 40

----------
# % Activity listing for each entry below
# subject-of-test: SIRT6 (Homo sapiens, UniProt Q8N6T7)
# protocol: SIRT6 enzymatic activity assay with fluorophore (AMC)-labeled Lysin-myristoylated histone H3 peptide (de-myristoylation, trypsin release)
# Format: biochemical
# Design: six-histidine tag; made in house; host or cells: Escherichia coli BL21
# protocol-conditions: amount tested 20 uM; Example 5, Table 9

# count of solved cases: 5
CN(C)CCCN(C(=O)CCOc1ccccc1)c1nc2ccc(Cl)cc2s1; 28%
COc1cc(OC)cc(C(=O)Nc2nc3c(cc4c5c(cccc53)CC4)s2)c1; 24%
Cc1c(Cc2ccccc2)c(=O)oc2c(C)c(OC(=O)c3ccccc3)ccc12; 41%
CCOc1ccccc1C(=O)Oc1ccc2c3c(c(=O)oc2c1)CCCC3; 168%
CCOC(=O)CCc1c(C)c2ccc(OC(=O)C3CCCCC3)c(C)c2oc1=O; 529%

Request: Value lookup for % Activity; key = `COc1cc(C(=O)Oc2ccc3c4c(c(=O)oc3c2)CCCC4)cc(OC)c1OC`
Result: 95%

Request: Value lookup for % Activity; key = Cc1ccccc1C1N=C2C=NC=CN2C1NCCC(=O)NCc1cccs1 (centres unmarked)
Result: 84%

Request: Value lookup for % Activity; key = `COc1cccc2sc(N(CCCN(C)C)C(=O)CCOc3ccccc3)nc12`
Result: 117%

Request: Value lookup for % Activity; key = `COc1ccc(CN2CCN(C(=O)c3ccc(N4CCc5ccccc54)s3)CC2)c(OC)c1OC`
Result: 45%

Request: Value lookup for % Activity; key = `CCCc1cc2c(=O)c(-c3ccc4c(c3)OCO4)coc2cc1OC(C)=O`
Result: 21%

Request: Value lookup for % Activity; key = `O=C(C1CCN(c2nc3ccc(-c4cncnc4)nc3s2)CC1)N1CCCC1`
Result: 40%

Request: Value lookup for % Activity; key = `CCN1CCN(C(=O)C2CCN(c3nc4ccc(-c5ccccc5)nc4s3)CC2)CC1`
Result: 69%

Request: Value lookup for % Activity; key = `CCC(=O)Nc1nc2c(OC)cc(NC(=O)c3ccccc3OC)cc2s1`
Result: 117%

Request: Value lookup for % Activity; key = `CN(C)CCCNC(=O)C1CCN(c2nc3ccc(-c4ccccc4)nc3s2)CC1`
Result: 51%
